- Assay system: Integrin alpha-V/beta-6 (Homo sapiens, UniProt P06756+P18564)
- Sequence (P06756 31-889 limits assumed): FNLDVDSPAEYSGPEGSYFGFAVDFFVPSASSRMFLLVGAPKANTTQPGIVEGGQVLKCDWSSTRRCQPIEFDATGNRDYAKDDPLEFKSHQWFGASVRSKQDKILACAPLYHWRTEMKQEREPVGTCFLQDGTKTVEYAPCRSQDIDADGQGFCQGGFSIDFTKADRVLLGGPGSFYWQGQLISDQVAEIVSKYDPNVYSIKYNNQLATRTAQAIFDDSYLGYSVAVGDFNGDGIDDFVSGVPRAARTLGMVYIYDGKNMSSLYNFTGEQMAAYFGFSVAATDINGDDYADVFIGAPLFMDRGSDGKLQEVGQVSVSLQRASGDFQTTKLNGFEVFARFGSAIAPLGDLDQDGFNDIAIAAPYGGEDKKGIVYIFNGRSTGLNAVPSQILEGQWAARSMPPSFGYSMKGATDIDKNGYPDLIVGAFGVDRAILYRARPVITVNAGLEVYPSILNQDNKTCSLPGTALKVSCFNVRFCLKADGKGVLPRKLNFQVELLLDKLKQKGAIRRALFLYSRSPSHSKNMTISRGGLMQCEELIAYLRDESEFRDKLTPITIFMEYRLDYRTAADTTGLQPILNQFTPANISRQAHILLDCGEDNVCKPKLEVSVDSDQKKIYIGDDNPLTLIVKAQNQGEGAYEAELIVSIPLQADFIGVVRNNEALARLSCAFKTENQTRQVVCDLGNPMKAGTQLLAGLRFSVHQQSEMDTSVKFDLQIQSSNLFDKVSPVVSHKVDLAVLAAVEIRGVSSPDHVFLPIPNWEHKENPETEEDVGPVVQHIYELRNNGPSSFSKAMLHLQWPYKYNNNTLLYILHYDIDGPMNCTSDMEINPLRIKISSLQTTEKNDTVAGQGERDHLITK
- Sequence (P06756 891-1048 limits assumed): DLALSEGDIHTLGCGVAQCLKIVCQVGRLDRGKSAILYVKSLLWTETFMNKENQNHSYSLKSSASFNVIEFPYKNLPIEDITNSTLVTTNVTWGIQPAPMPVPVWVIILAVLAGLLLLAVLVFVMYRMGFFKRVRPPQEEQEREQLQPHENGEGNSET
- Sequence (P18564 22-788 limits assumed): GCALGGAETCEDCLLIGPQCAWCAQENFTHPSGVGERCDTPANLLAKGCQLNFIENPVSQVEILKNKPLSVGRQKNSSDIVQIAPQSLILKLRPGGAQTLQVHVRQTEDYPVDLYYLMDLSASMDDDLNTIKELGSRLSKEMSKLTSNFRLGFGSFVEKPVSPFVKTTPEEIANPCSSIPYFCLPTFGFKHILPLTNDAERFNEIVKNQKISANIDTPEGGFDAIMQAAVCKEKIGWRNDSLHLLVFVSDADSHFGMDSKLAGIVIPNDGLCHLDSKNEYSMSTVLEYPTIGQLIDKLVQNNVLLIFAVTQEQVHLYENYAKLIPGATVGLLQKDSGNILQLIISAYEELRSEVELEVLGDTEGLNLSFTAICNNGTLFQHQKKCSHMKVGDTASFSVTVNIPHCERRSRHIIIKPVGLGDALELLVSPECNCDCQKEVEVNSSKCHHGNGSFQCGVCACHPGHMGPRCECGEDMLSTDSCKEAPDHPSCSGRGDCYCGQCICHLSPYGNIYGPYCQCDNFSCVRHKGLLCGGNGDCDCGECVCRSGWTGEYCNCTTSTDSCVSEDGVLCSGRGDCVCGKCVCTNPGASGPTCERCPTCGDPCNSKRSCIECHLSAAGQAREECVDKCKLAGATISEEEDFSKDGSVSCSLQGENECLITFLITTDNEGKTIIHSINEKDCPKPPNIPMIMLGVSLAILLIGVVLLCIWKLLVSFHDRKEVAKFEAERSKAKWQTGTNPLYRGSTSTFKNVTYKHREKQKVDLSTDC
- Protocol details: Inhibition of LAP binding to human integrin alphavbeta6 receptor after 1 hr by solid-phase binding assay
- Assay type: protein-complex assay
- Reported conditions: read-out: IC50
Non-standard residues stand in square brackets, D forms with d. Residues, ends and D or L forms follow the SMILES beside them. Groups on a side chain read outwards from the residue. *: point of attachment. BODIPY(FL) = CC1=CC(C)=[N+]2C1=Cc1ccc(CCC(=O)*)n1[B-]2(F)F; NMeK = CN[C@@H](CCCCN)C(=O)O; Ahx = NCCCCCC(=O)O
Readout label: IC50
Answer format: value, then unit.

Exam item: Could you share which IC50 value was measured for CC(C)C[C@@H]1NC(=O)CNC(=O)[C@@H]2CCCN2C(=O)[C@H]2CCCN2C(=O)[C@H](CC(C)C)NC(=O)[C@H](CC(=O)O)NC(=O)CNC(=O)[C@H](CCCNC(=N)N)NC1=O (cyclo(RGDL[dP]PGL)) ?
Marked response: 160 nM

Exam item: Field entry: `C[C@@H]1NC(=O)[C@@H]2CCCN2C(=O)[C@H]2CCCN2C(=O)[C@H](Cc2ccccc2)NC(=O)[C@H](CC(=O)O)NC(=O)CNC(=O)[C@H](CCCNC(=N)N)NC(=O)[C@H](Cc2ccccc2)NC1=O`
Marked response: 324 nM

Exam item: Now the molecule CC1=CC(C)=[N+]2C1=Cc1ccc(CCC(=O)NCCCCCC(=O)NCCCC[C@H]3C(=O)NCC(=O)N[C@@H](CC(C)C)C(=O)N[C@@H](CCCNC(=N)N)C(=O)NCC(=O)N[C@@H](CC(=O)O)C(=O)N[C@@H](CC(C)C)C(=O)N4CCC[C@@H]4C(=O)N3C)n1[B-]2(F)F (cyclo(RGDL[dP][NMeK]([Ahx-BODIPY(FL)])GL))
Marked response: 47 nM
